Species on record: Gallus gallus
Assay Comment: Inhibition of chicken brain microtubule polymerization after 30 mins
Listed here: items and their measured ID50.

*Q* Bench note: what ID50 did `COc1cc([C@@H]2c3cc4c(cc3C[C@H]3CCC[C@@H]32)OCO4)cc(OC)c1OC` show?
*A* 5 µM

*Q* Bench note: what ID50 did `COc1cc([C@@H]2c3cc4c(cc3C[C@H]3CSC[C@@H]32)OCO4)cc(OC)c1OC` show?
*A* 10 µM

*Q* Bench note: what ID50 did `COc1cc([C@@H]2c3cc4c(cc3C[C@H]3COC(=O)[C@@H]32)OCO4)cc(OC)c1OC` show?
*A* 0.5 µM

----------
Species: Gallus gallus
Assay Comment: Inhibition of chicken brain microtubule polymerization after 30 mins
Threshold 10 µM: ID50 strictly smaller gives t, otherwise f.

Completed entries (count: 6):
*Q* Dear colleague, could you confirm whether ID50 of `COc1cc([C@@H]2c3cc4c(cc3[C@H](O)[C@H]3COC(=O)[C@@H]23)OCO4)cc(OC)c1OC` falls below 10 µM? Thanks.
*A* f

*Q* Dear colleague, could you confirm whether ID50 of `COc1cc([C@@H]2c3cc4c(cc3[C@H](O)[C@H]3CS(=O)(=O)C[C@H]23)OCO4)cc(OC)c1OC` falls below 10 µM? Thanks.
*A* f

*Q* Dear colleague, could you confirm whether ID50 of `COc1cc([C@@H]2c3cc4c(cc3C[C@H]3CS(=O)(=O)C[C@@H]32)OCO4)cc(OC)c1OC` falls below 10 µM? Thanks.
*A* f

*Q* Dear colleague, could you confirm whether ID50 of `COc1cc([C@@H]2c3cc4c(cc3[C@H](O)[C@H]3COC[C@H]23)OCO4)cc(OC)c1OC` falls below 10 µM? Thanks.
*A* t

*Q* Dear colleague, could you confirm whether ID50 of `COc1cc([C@@H]2c3cc4c(cc3C[C@H]3COC[C@@H]32)OCO4)cc(OC)c1OC` falls below 10 µM? Thanks.
*A* t

*Q* Dear colleague, could you confirm whether ID50 of `COc1cc([C@@H]2c3cc4c(cc3[C@@H](O)[C@H]3COC(=O)[C@H]23)OCO4)cc(OC)c1OC` falls below 10 µM? Thanks.
*A* t

---
*Q* Dear colleague, could you confirm whether ID50 of `COc1cc([C@@H]2c3cc4c(cc3[C@H](O)[C@H]3COC(=O)[C@H]23)OCO4)cc(OC)c1OC` falls below 10 µM? Thanks.
*A* t
